Test system: MOLT-4 leukemia
Experiment: NCI-60 one-dose screen, 48 h
Settings: 10 µM unless noted
Compounds without any hit were thinned out: in the full panel of roughly 83,000, 20% have a hit. Calls of active or inactive are those of the source. Rule for the calls: active = growth percent below 10; inactive = the rest.
Possible outcomes: active, inactive

compound	measuredTarget	group
COc1cc(/C=N/Nc2ccccc2F)cc(OC)c1OC	MOLT-4 leukemia	inactive
Clc1ccc(-c2cn3ccsc3n2)c(Cl)c1Cl	MOLT-4 leukemia	inactive
O=C(CCCCNC(=O)c1cc(=O)c(O)co1)Nc1ccccc1	MOLT-4 leukemia	inactive
CCCCCn1sc(=O)n(Cc2ccc(CNC(=O)OCc3ccc4c(Cl)cc(Cl)c(O)c4n3)cc2)c1=O	MOLT-4 leukemia	inactive
COc1cc(C2=NN(C(C)=O)C(c3ccc(N(C)C)cc3)C2)cc(OC)c1OC (stereo not drawn)	MOLT-4 leukemia	inactive
CCOc1ccc(NC(=O)c2cc(OC)c(OC)c(OC)c2)cc1	MOLT-4 leukemia	inactive
Cn1cc(-c2csc(-c3cn(C(=O)OC(C)(C)C)c4ccccc34)n2)c2ccnc(Cl)c21	MOLT-4 leukemia	inactive
CC(C)CN1CC(C(=O)Nc2ccc3c(c2)-c2ccccc2C3)CC1=O (stereo not drawn)	MOLT-4 leukemia	inactive
COC(=O)c1c2c(c(C)[n+]([O-])c1C)C(=O)C=CC2=O	MOLT-4 leukemia	active
O=C1OCC2=C1C(c1cccc(C(F)(F)F)c1)c1cc3c(cc1N2CCO)OCO3 (stereo not drawn)	MOLT-4 leukemia	inactive
CN1CCN(C(=O)c2cc(-c3ccc4ncnc(N5CCc6cc(F)c(Cl)cc65)c4c3)cnc2N)CC1	MOLT-4 leukemia	active
CCN(CC)c1ccc(/C=N\NC(=O)c2cccc(Nc3ccnc(C(F)(F)F)c3)c2)c(O)c1	MOLT-4 leukemia	inactive
Cc1cscc(C)c1=S	MOLT-4 leukemia	inactive
C#CC#CC#CC#CC#CC#CC#CC#CC[C@H]1OC[C@H](COC(=O)O[C@@H](C(=O)O[C@H]2C[C@@]3(O)[C@@H](OC(=O)c4ccccc4)[C@@H]4[C@]5(OC(C)=O)CO[C@@H]5C[C@H](O)[C@@]4(C)C(=O)[C@H](OC(C)=O)C(=C2C)C3(C)C)[C@@H](NC(=O)c2ccccc2)c2ccccc2)O1	MOLT-4 leukemia	inactive
CC(C)CSc1oc(-c2ccccc2)nc1S(=O)(=O)c1ccccc1	MOLT-4 leukemia	inactive
NC(CSC(c1ccccc1)(c1ccccc1)c1ccc2c(c1)OCO2)C(=O)O (stereo not drawn)	MOLT-4 leukemia	active
O=C1NC(=O)c2c1c1c3ccccc3[nH]c1c1oc3ccc(F)cc3c21	MOLT-4 leukemia	inactive
O=C1/C(=C/c2ccccc2[N+](=O)[O-])COc2ccc(O)cc21	MOLT-4 leukemia	active
Nc1n[nH]c2ccc([C@@H]3Nc4cc5[nH]ncc5cc4[C@H]4C5CCC(C5)[C@@H]34)cc12 (stereo partly drawn)	MOLT-4 leukemia	inactive
O=C(O)c1cn(C2CC2)c2cc(N3CCN(C(=O)N/N=C/c4ccccc4)CC3)c(F)cc2c1=O	MOLT-4 leukemia	inactive
CC[C@@H](c1ccc2cc(OC)ccc2c1)C(C)(C)C(=O)F	MOLT-4 leukemia	inactive
COc1cc(C2Cc3ncccc3-c3[nH]c(=O)c4cccnc4c32)cc(OC)c1OC (stereo not drawn)	MOLT-4 leukemia	inactive
CCN(CC)CCN(CCN(CC)CC)c1ccccc1	MOLT-4 leukemia	inactive
